Please provide measured Relative Potency for the entries that follow.
# measured on: VLA-4 (Homo sapiens, UniProt P05556+P13612)
# Sequence (P13612 34-1032): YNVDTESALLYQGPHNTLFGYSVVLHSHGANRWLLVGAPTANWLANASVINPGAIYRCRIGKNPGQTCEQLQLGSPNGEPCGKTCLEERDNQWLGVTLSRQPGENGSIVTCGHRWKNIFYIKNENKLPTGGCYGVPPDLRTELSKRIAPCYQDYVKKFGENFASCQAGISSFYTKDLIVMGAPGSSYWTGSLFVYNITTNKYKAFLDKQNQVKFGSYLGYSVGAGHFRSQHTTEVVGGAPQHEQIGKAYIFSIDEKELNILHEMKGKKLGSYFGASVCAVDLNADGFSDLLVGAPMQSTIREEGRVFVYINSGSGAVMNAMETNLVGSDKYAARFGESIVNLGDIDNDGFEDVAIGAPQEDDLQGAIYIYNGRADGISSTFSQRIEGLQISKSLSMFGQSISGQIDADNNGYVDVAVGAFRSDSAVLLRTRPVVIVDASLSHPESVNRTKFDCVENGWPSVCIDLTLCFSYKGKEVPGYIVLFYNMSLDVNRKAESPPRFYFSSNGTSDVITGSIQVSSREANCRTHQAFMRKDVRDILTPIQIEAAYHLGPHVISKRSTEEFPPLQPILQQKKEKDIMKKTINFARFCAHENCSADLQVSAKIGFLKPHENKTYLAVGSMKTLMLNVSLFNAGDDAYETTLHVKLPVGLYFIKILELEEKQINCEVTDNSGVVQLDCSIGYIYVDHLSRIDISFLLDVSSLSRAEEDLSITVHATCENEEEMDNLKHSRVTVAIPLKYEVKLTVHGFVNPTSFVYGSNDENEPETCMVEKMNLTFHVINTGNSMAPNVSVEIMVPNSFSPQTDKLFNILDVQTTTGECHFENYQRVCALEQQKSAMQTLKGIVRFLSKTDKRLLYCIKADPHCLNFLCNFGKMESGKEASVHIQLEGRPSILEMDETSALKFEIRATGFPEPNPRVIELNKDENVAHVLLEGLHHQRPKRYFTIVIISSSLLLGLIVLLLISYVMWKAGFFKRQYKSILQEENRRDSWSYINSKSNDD
# Sequence (P05556 21-798): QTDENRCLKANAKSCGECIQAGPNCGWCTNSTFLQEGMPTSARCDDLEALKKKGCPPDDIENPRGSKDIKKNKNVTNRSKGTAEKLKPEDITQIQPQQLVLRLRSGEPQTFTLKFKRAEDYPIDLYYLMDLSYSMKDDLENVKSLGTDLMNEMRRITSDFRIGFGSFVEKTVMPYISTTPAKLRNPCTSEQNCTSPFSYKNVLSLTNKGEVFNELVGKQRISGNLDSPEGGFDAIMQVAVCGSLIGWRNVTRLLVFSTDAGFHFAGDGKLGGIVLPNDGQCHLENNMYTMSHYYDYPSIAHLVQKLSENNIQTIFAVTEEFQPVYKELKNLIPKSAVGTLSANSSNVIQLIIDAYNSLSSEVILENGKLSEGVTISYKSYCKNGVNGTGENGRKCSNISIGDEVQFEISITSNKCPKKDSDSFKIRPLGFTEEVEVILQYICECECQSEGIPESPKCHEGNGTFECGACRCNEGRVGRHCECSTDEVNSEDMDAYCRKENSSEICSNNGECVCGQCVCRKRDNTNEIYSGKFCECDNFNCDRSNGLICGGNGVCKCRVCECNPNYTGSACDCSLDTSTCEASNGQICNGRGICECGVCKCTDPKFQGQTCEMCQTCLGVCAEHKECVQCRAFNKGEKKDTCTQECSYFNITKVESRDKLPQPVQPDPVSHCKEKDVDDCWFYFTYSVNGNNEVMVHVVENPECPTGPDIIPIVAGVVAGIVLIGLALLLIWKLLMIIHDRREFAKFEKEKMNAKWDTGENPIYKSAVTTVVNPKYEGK
# method description: In vitro binding assay: 51Cr-labeled Jurkat cells to solid phase-bound CS-1 peptide (SEQ ID NO:5)
# Format: cell-based
# Design: inflammatory cells that contain the VLA-4 receptor [Jurkat cells; host or cells: Jurkat cells (human T lymphoblastic line)
# condition details: Table 2; normalized IC50 potency relative to standard peptide SEQ ID NO:6; Jurkat cells, CS-1
Positions of bridges follow the written chain, without caps; N, C: chain ends. Residues, ends and D or L forms follow the SMILES beside them.
Reply with the value as a number alone.

Qu. Requested read-out: Relative Potency. Entry: CC(=O)N[C@H]1CSSC[C@@H](C(N)=O)NC(=O)[C@@H]2CCCN2C(=O)[C@H](Cc2ccccc2)NC(=O)[C@H](CC(=O)O)NC(=O)[C@H](CC(C)C)NC(=O)[C@H](Cc2ccccc2)NC1=O [drawing 10] (Ac-CFLDFPC-NH2; disulfide 1-7)
Ans. 135

Qu. Please do the same for NC(=O)[C@@H]1CSSC[C@H](NC(=O)[C@@H](N)Cc2ccccc2)C(=O)N[C@@H](CC(=O)O)C(=O)N[C@@H](Cc2ccccc2)C(=O)N2CCC[C@H]2C(=O)N1 [drawing 11] (H-FCDFPC-NH2; disulfide 2-6) as well.
Ans. 131

Qu. Please do the same for CC(C)C[C@@H]1NC(=O)[C@H](Cc2ccccc2)NC(=O)[C@H](CCC(=O)O)NC(=O)[C@@H]2CCCN2C(=O)[C@@H](N)CSSC[C@@H](C(N)=O)NC(=O)[C@H](CO)NC(=O)[C@@H]2CCCN2C(=O)[C@H](Cc2ccccc2)NC(=O)[C@H](CC(=O)O)NC1=O [drawing 35] (H-CPEFLDFPSC-NH2; disulfide 1-10) as well.
Ans. 6.26

Qu. Please do the same for NC(=O)[C@@H]1CSSC[C@H](NC(=O)[C@@H](N)Cc2ccccc2)C(=O)N[C@@H](CC(=O)O)C(=O)N[C@@H](Cc2ccccc2)C(=O)N1 [drawing 39] (H-FCDFC-NH2; disulfide 2-5) as well.
Ans. 2.52

----------
Please provide measured Relative Potency for the entries that follow.
# measured on: VLA-4 (Homo sapiens, UniProt P05556+P13612)
# method description: In vitro binding assay: 51Cr-labeled Jurkat cells to solid phase-bound CS-1 peptide (SEQ ID NO:5)
# Assay type: cell-based
# Parameters: inflammatory cells that contain the VLA-4 receptor [Jurkat cells; host or cells: Jurkat cells (human T lymphoblastic line)
# condition details: Table 1; normalized IC50 potency relative to standard peptide SEQ ID NO:6 (=1); Jurkat cells, CS-1
Positions of bridges follow the written chain, without caps; N, C: chain ends. Non-standard residues stand in square brackets, D forms with d. Residues, ends and D or L forms follow the SMILES beside them. *: point of attachment. Pen = CC(C)(S)[C@H](N)C(=O)O; PhAc = O=C(Cc1ccccc1)*
Reply with the value as a number alone.

Qu. Requested read-out: Relative Potency. Entry: CC(C)C[C@@H]1NC(=O)[C@H](Cc2ccccc2)NC(=O)[C@@H](N)CSSC[C@@H](C(N)=O)NC(=O)[C@H](C(C)C)NC(=O)[C@H]([C@@H](C)O)NC(=O)[C@H](CO)NC(=O)[C@@H]2CCCN2C(=O)[C@H](Cc2ccccc2)NC(=O)[C@H](CC(=O)O)NC1=O [SEQ ID NO:21, CFLDFPSTVC-NH2] (H-CFLDFPSTVC-NH2; disulfide 1-10)
Ans. 19

Qu. Please do the same for CC1(C)SSC[C@H](C(N)=O)NC(=O)[C@H](Cc2ccccc2)NC(=O)[C@H](CC(=O)O)NC(=O)[C@H]1NC(=O)Cc1ccccc1 [.phi.AcJDFc-NH2] (PhAc-[Pen]DF[dC]-NH2; disulfide 1-4) as well.
Ans. 4

Qu. Please do the same for CC(=O)N[C@@H](Cc1ccccc1)C(=O)N[C@@H](CS)C(=O)N[C@@H](CC(=O)O)C(=O)N[C@@H](Cc1ccccc1)C(=O)N[C@@H](CS)C(N)=O [SEQ ID NO:18, AcFCDFC-NH2] (Ac-FCDFC-NH2) as well.
Ans. 41

Cited source for all entries: patent US5811391A
